Sourced from paper PMC10392058

- System name: BCRP (Homo sapiens, UniProt Q9UNQ0)
- Sequence (Q9UNQ0 whole entry): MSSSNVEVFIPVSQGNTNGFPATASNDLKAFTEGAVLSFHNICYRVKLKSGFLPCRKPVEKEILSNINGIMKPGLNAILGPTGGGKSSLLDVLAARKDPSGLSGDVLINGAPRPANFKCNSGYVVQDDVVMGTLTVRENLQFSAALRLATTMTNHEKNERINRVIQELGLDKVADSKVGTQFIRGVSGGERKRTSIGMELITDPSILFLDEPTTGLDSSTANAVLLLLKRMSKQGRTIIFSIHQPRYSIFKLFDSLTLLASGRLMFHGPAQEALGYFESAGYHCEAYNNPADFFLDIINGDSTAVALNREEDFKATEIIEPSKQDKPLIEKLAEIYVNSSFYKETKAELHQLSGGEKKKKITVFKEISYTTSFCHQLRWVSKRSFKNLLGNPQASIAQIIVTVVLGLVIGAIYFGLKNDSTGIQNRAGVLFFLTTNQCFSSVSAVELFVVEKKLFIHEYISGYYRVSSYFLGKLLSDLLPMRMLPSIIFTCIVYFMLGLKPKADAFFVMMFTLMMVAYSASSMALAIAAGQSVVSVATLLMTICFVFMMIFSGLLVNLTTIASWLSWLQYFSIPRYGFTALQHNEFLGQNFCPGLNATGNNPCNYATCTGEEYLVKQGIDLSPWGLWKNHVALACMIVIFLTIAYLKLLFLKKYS
- Test description: MDCKII bidirectional permeability, BCRP expressing cells
- Conditions: dog
Measurement kind: Papp A→B at 1 μM (nm/s)

{"Compound": "COc1cc2nc(N3CCN(C(=O)c4ccco4)CC3)nc(N)c2cc1OC [Prazosin]", "System name": "BCRP (Homo sapiens, UniProt Q9UNQ0)", "Readout units": "nm/s", "Recorded measurement": 30.2}

---

- Test description: MDCKII bidirectional permeability, mock transfected cells
- Type: in vitro ADME
- Conditions: dog, MDCK

{"Molecule": "COc1cc2nc(N3CCN(C(=O)c4ccco4)CC3)nc(N)c2cc1OC", "Papp A→B at 1 μM, ×10⁻⁶ cm/s": 14.7}
